target.desc: T1, CRBN, Q96SW2;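 note: pooled lentiviral library of zinc finger degron-EGFP fusions in mCherry-positive Jurkat cells, FACS-sorted after compound exposure, with degron abundance counted by next-generation sequencing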
T1 chain: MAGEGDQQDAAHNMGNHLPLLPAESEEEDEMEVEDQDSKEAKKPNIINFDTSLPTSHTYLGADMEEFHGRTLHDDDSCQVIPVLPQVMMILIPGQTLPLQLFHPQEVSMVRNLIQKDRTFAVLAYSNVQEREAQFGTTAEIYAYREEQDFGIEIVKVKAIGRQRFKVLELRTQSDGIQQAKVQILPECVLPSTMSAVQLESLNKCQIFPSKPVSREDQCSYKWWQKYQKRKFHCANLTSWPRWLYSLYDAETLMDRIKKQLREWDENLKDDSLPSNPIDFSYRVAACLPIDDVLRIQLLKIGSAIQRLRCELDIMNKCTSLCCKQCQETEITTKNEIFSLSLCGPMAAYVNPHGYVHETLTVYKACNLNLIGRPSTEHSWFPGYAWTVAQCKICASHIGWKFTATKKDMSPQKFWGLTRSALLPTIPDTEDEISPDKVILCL
protocol.notes: log2 fold change of degron read counts, EGFP-low vs EGFP+ sorted cells (limma voom), compound-induced degradation; higher = more compound-induced degradation of the degron-EGFP fusion; degrons are variants of IKZF1/3 zinc finger 2; compound dose not given here
measurement.setup: Jurkat; 18 h; compound: compound 33 (diphenyl IMiD analogue)
Over roughly 8,300 sequences, “log2 fold change of degron read counts, EGFP-low vs EGFP+ sorted cells (limma voom), compound-induced degradation” has its median near -1.1; the highest 2% begin near 3.2. This excerpt belongs to a sample that is enriched for the highest values.
quantity.name: log2 fold change of degron read counts
Note: the reply should be a number with no unit written.

The cases that follow already have their log2 fold change of degron read counts on record.
LTCPICGFTCTQKGNLLRHIKL [46L_47T_49P_50I_52G_53F_54T_55C_67L_, Q9UKT9] :: 2.65
FWCEICGRSFTQKGNLLRHIKL [46F_47W_49E_50I_52G_53R_54S_55F_67L_, Q9UKT9] :: 0.626
FQCPICGHTFTQKGNLLRHIKL [46F_47Q_49P_50I_52G_53H_54T_55F_67L_, Q9UKT9] :: -1.64
LICPICGFTCTQKGNLLRHIKL [46L_47I_49P_50I_52G_53F_54T_55C_67L_, Q9UKT9] :: 2.13
LQCPICGFTCTQKGNLLRHIKL [46L_47Q_49P_50I_52G_53F_54T_55C_67L_, Q9UKT9] :: 2.54

Ask | Supply reported log2 fold change of degron read counts belonging to this sequence: FQCPVCGARFTQKGNLLRHIKL [46F_47Q_49P_50V_52G_53A_54R_55F_67L_, Q9UKT9]
Reply | 1.08

Ask | Supply reported log2 fold change of degron read counts belonging to this sequence: FVCPVCGARFTQKGNLLRHIKL [46F_47V_49P_50V_52G_53A_54R_55F_67L_, Q9UKT9]
Reply | 0.744
